assay.protocol: qHTS of pediatric cancer cell lines to identify multiple opportunities for drug repurposing: Primary screen for TC32 cells (AID 1347089); note: nearly all actives have a fitted effect of over 60% in size
condition.summary: TC32 Ewing sarcoma viability, CellTiter-Glo luminescence, 48 h; series mostly up to 45.8 µM
Description: Drug repurposing or repositioning has been offered as a strategy for drug development in oncology programs. […] [1] Shen, M et al. Quantitative high-throughput phenotypic screening of pediatric cancer cell lines identifies multiple opportunities for drug repurposing. […] Cells were assayed in growth media at a density of 500-1,000 cells/well. […] After a 15min incubation at room temperature, samples were analyzed for luminescence intensity using a ViewLux High-throughput CCD imager equipped with clear filters.
Inconclusive results are not listed. Activity calls are given as the source filed them. Calls come from the whole dose curve; as a rule, active = well fitted cell-killing curve with a large enough effect; inconclusive = small, poorly fitted or top-dose-only effect; inactive = flat fitted curve, though single readings scatter.
Result category, one only: yes = active, no = inactive

For orientation, consider the following solved cases.
[
  {
    "molecule": "CNC1CCC(N(Cc2cccc(-c3ccncc3)c2)C(=O)c2sc3ccccc3c2Cl)CC1 (stereo not given)",
    "class.name": "no"
  },
  {
    "molecule": "CN(C)CCOc1cc(-c2cn[nH]c2)ccc1NC(=O)C1COc2ccccc2O1 (stereo not given)",
    "class.name": "no"
  },
  {
    "molecule": "CCC(=O)N1CCN(c2ccc(-n3c(=O)ccc4cnc5ccc(-c6cnc7ccccc7c6)cc5c43)cc2C(F)(F)F)CC1",
    "class.name": "yes"
  },
  {
    "molecule": "CCCCCCOC(=O)N=C(N)c1ccc(NCc2nc3cc(C(=O)N(CCC(=O)OCC)c4ccccn4)ccc3n2C)cc1",
    "class.name": "no"
  },
  {
    "molecule": "COc1cc([C@@H]2c3cc4c(cc3[C@@H](O[C@@H]3O[C@@H]5CO[C@@H](C)O[C@@H]5[C@H](O)[C@@H]3O)[C@H]3COC(=O)[C@H]23)OCO4)cc(OC)c1O",
    "class.name": "yes"
  }
]

Prompt: Dear colleague, could you share the recorded outcome for C[C@@]1(c2cc(-c3cncnc3)c(F)cc2F)CCSC(N)=N1 when you have a moment?
Completion: no

Prompt: Dear colleague, could you share the recorded outcome for C#C[C@]1(O)CC[C@H]2[C@H]3CCc4cc(OC)ccc4[C@H]3CC[C@@]21C when you have a moment?
Completion: no

Prompt: Dear colleague, could you share the recorded outcome for CC(=O)OCC(=O)[C@@]12OC(C)(C)O[C@H]1C[C@H]1[C@@H]3C[C@H](F)C4=CC(=O)C=C[C@]4(C)[C@@]3(F)[C@@H](O)C[C@@]12C when you have a moment?
Completion: no

Prompt: Dear colleague, could you share the recorded outcome for CCC[C@@H](NC(=O)[C@@H]1[C@H]2CCC[C@@H]2CN1C(=O)[C@@H](NC(=O)[C@@H](NC(=O)c1cnccn1)C1CCCCC1)C(C)(C)C)C(=O)C(=O)NC1CC1 when you have a moment?
Completion: no

Prompt: Dear colleague, could you share the recorded outcome for COc1cc(F)c(C(C)C)cc1-c1ccc(C(F)(F)F)cc1CN1C(=O)O[C@H](c2cc(C(F)(F)F)cc(C(F)(F)F)c2)[C@@H]1C when you have a moment?
Completion: no

Prompt: Dear colleague, could you share the recorded outcome for O=C(Nc1cccc(Cl)c1)Nc1ncc(CCNc2ncnc3ccsc23)s1 when you have a moment?
Completion: yes
